The measurements presented in this section are drawn from patent US10342809B2.

Target: picrotoxin binding site on GABAA receptors
Assay: [35S]-TBPS displacement (inhibition of [35S]-TBPS binding)
Conditions: non-competitive displacement; duplicate experiments in triplicate; ± SEM
Property Measured: IC50 (µM)

COC[C@]12CC[C@@H](O)C[C@@H]1CC[C@@H]1[C@@H]2CC[C@]2(C)C(=O)CC[C@@H]12	4.3

---

Target: rat α1β2γ2L type GABAA receptors expressed in Xenopus laevis oocytes (Rattus norvegicus, UniProt P62813+P63138)
Construct: expressed in transfected cells; host or cells: Xenopus laevis oocytes
Sequence (P62813 28-455): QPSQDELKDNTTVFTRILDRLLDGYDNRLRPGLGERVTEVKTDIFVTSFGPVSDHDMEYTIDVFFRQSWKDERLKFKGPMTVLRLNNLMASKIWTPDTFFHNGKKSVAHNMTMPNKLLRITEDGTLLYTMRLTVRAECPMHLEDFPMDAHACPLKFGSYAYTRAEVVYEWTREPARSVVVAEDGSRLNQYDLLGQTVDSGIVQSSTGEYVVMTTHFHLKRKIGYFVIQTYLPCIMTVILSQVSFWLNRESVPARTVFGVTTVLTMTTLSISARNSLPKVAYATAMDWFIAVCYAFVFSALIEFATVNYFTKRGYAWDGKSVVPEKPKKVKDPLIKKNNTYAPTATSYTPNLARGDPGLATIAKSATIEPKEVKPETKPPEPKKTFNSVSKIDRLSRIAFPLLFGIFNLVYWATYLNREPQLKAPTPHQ
Sequence (P63138 26-474): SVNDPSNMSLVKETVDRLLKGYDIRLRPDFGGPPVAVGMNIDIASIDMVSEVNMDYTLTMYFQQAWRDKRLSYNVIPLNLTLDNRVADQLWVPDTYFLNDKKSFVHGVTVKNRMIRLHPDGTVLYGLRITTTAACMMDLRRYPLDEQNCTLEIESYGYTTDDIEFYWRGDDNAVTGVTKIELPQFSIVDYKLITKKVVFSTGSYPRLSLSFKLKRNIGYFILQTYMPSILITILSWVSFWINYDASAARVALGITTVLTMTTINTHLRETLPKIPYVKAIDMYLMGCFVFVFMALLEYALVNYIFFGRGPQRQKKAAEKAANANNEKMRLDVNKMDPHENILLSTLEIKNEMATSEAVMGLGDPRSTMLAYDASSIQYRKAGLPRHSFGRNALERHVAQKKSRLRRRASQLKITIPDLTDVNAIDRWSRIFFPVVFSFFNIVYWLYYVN
Sequence (P18508 with tags, fused parts or gaps INS375LLRMFSFK partner): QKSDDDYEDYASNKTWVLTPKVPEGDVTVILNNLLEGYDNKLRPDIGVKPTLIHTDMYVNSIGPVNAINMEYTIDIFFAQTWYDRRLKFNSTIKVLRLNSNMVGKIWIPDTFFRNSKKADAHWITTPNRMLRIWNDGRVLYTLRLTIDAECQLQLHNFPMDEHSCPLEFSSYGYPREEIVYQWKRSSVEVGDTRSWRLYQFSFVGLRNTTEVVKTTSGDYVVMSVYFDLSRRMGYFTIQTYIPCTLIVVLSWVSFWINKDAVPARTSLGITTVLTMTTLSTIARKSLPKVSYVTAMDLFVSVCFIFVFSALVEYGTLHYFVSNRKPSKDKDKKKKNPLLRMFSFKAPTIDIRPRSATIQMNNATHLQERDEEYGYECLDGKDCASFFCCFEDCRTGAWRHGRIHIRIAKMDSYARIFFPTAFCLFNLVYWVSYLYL
Assay: Oocyte electrophysiology: potentiation of GABA-mediated chloride currents and direct gating
Type: cell-based
Settings: ratio of currents in presence/absence of 10 μM compound; 2 μM GABA; ± SEM, N ≥4
Label Criterion met when oocyte electrophysiology 10 μM is at or above 1; otherwise label Criterion not met.

COC[C@]12CC[C@@H](O)C[C@@H]1CC[C@H]1[C@@H]3CC[C@H](OC)[C@@]3(C)CC[C@@H]12	Criterion met
COC[C@]12CC[C@H](O)C[C@@H]1CC[C@H]1[C@@H]3CC[C@H](OC)[C@@]3(C)CC[C@@H]12	Criterion met
COC[C@]12CC[C@@H](O)C[C@@H]1CC[C@@H]1[C@@H]2CC[C@]2(C)C(=O)CC[C@@H]12	Criterion met
COC[C@]12CCC(=O)C=C1CC[C@@H]1[C@@H]2CC[C@]2(C)[C@@H](OC)CC[C@@H]12	Criterion met
COC[C@]12CCC(O)CC1CC[C@@H]1[C@@H]2CC[C@]2(C)C(=O)CC[C@@H]12 (stereo in doubt)	Criterion not met
COC[C@]12CC[C@@H](O)CC1=CC[C@@H]1[C@@H]2CC[C@]2(C)[C@@H](OC)CC[C@@H]12	Criterion met
COC[C@]12CC[C@@H](O)C[C@@H]1CC[C@H]1[C@@H]3CC[C@H]([N+](=O)[O-])[C@@]3(C)CC[C@@H]12	Criterion met
COC[C@]12CC[C@H](O)CC1=CC[C@@H]1[C@@H]2CC[C@]2(C)[C@@H](OC)CC[C@@H]12	Criterion not met

---

Biological target: rat α1β2γ2L type GABAA receptors expressed in Xenopus laevis oocytes (Rattus norvegicus, UniProt P62813+P63138)
Construct: expressed in transfected cells; host or cells: Xenopus laevis oocytes
Assay: Oocyte electrophysiology: potentiation of GABA-mediated chloride currents and direct gating
Type: cell-based
Settings: ratio of currents in presence/absence of 1 μM compound; 2 μM GABA; ± SEM, N ≥4
Property Measured: oocyte electrophysiology 1 μM

COC[C@]12CC[C@@H](O)C[C@@H]1CC[C@H]1[C@@H]3CC[C@H](C(C)=O)[C@@]3(C)CC[C@@H]12	12.8 ± 1.74
COC[C@]12CC[C@@H](O)C[C@@H]1CC[C@@H]1[C@@H]2CC[C@]2(C)C(=O)CC[C@@H]12	0.76 ± 0.07
COC[C@]12CC[C@@H](O)C[C@@H]1CC[C@H]1[C@@H]3CC[C@H](C#N)[C@@]3(C)CC[C@@H]12	9.79 ± 0.53
COC[C@]12CCC(=O)C=C1CC[C@@H]1[C@@H]2CC[C@]2(C)[C@@H](OC)CC[C@@H]12	0.63 ± 0.06
COC[C@]12CC[C@H](O)C[C@@H]1CC[C@H]1[C@@H]3CC[C@H](OC)[C@@]3(C)CC[C@@H]12	0.97 ± 0.05
COC[C@]12CCC(=O)C[C@@H]1CC[C@H]1[C@@H]3CC[C@H](OC)[C@@]3(C)CC[C@@H]12	0.85 ± 0.01
COC[C@]12CC[C@@H](O)C[C@@H]1CC[C@H]1[C@@H]3CC[C@H](OC)[C@@]3(C)CC[C@@H]12	7.63 ± 0.77
COC[C@]12CC[C@@H](O)CC1=CC[C@@H]1[C@@H]2CC[C@]2(C)[C@@H](OC)CC[C@@H]12	1.97 ± 0.08
